assay: In vivo pharmacokinetics in ICR mice; details: mouse, plasma, 1 mg/kg, IV, read-out: MRT(0-t)
observable: MRT last (h)

{"smiles": "Cc1cc2cc(n1)-c1cnn(C)c1OCCC[C@@H](C1CC1)CN1/C(=N/C2=O)Nc2ccc(N[C@H]3C[C@H](N(C)C)C3)cc21", "MRT last [h]": 1.65}

I = CCC1(Nc2ccc3c(c2)N/C2=N\C(=O)c4cc(C)nc(c4)-c4cnn(C)c4OCCC[C@@H](C4CC4)CN23)COC1
II = Cc1cc2cc(n1)-c1cnn(C)c1OCCC[C@@H](C1CC1)CN1/C(=N/C2=O)Nc2ccc(N(C)C3CCN(C)CC3)cc21
Query string: From the items above, decide which of I and II has the lower MRT last reading. Answer by quoting the chosen item's label.
Result string: I
(I: 1.65 h, II: 3.3 h)

###

target: EGFR (d746-750/T790M/C797S) (Homo sapiens (Human), UniProt P00533, C797S/DEL746-750/T790M); experiment: Inhibitory activity for EGFR (d746-750/T790M/C797S) kinase; conditions: ATP 5 μM; read-out: EGFR(d19/T790M/C797S) (IC50)
Sequence (P00533 other isoform, or with tags, fused parts or gaps T790M/C797S/del 1-694/del 746-750 limits assumed): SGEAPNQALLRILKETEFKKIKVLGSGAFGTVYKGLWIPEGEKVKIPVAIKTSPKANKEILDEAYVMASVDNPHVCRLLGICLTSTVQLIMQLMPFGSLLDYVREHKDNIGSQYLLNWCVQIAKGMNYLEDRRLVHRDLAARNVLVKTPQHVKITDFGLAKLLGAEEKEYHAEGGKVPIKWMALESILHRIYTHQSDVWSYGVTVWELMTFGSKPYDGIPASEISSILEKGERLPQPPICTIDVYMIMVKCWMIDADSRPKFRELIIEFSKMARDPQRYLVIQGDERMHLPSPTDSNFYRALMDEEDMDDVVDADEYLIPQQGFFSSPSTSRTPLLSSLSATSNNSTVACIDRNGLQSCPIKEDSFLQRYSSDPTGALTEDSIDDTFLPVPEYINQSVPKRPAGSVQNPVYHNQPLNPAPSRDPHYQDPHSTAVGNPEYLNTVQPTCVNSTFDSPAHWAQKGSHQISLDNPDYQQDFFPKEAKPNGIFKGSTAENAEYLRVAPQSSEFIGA
observable: IC50 (nM)

Here are 2 molecules together with their reported answers.
{"molecule": "Cc1cc2cc(n1)-c1cnn(C)c1OCCC[C@@H](C1CC1)CN1/C(=N/C2=O)Nc2ccc(NC(=O)CN(C)C)cc21 [Example 111]", "IC50 / nM": 0.073}
{"molecule": "Cc1cc2cc(n1)-c1cnn(C)c1OCCC[C@@H](C1CC1)CN1/C(=N/C2=O)Nc2cc(NCCCCN(C)C)ccc21 [Example 51]", "IC50 / nM": 0.02}

P = Cc1cc2cc(n1)-c1cnn(C)c1OCCC[C@@H](C1CC1)CN1/C(=N/C2=O)Nc2cc(NCC3(C)COC3)ccc21 [Example 40]
Q = Cc1cc2cc(n1)-c1cnn(C3CC3)c1OCCC[C@@H](C)CN1/C(=N/C2=O)Nc2cc(NCCN3CCOCC3)ccc21 [Example 5]
Query string: In the pair P and Q , the larger recorded IC50 belongs to which? Answer by quoting the chosen item's label.
Result string: Q

###

target: EGFR (L858R/T790M/C797S) (Homo sapiens (Human), UniProt P00533, C797S/L858R/T790M); assay: Inhibitory activity for EGFR (L858R/T790M/C797S) kinase; details: ATP 5 μM
Sequence (P00533 25-1210 T790M/C797S/L858R): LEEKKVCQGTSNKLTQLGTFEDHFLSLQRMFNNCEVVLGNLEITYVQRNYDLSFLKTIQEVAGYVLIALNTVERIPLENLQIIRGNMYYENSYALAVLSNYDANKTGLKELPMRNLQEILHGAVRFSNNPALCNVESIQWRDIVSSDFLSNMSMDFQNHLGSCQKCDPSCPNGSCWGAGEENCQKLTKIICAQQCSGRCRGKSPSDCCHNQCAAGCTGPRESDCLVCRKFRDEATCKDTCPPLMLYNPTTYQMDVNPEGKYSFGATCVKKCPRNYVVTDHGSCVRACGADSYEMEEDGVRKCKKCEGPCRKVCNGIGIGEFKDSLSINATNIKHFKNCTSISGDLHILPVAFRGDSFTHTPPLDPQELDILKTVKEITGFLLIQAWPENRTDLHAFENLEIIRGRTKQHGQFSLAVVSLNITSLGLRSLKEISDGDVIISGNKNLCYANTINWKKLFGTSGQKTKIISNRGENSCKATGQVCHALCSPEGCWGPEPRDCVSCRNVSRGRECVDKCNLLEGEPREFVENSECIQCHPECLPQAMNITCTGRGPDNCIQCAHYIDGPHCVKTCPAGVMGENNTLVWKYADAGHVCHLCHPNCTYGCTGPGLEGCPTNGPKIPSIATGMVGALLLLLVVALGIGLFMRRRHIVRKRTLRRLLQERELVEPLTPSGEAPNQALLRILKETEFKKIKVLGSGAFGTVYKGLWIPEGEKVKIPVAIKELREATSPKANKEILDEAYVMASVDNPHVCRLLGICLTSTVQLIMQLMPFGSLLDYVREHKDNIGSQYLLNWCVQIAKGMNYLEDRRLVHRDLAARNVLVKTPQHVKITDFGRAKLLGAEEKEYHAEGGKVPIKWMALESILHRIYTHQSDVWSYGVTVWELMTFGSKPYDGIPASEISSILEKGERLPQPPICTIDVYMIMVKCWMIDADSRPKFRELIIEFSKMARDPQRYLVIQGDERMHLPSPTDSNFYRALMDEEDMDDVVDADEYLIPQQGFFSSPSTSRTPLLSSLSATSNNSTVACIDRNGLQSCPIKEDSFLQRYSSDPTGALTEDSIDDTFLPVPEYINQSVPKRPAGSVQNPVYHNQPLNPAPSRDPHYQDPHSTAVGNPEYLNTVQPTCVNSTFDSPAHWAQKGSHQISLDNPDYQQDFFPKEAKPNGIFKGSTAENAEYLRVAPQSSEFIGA
observable: IC50 (nM)

1 = Cc1cc2cc(n1)-c1cnn(C)c1OCCC[C@@H](C1CC1)CN1/C(=N/C2=O)Nc2ccc(C=CCCN(C)C)cc21
2 = Cc1cc2cc(n1)-c1cnn(C)c1OCCC[C@@H](C1CC1)CN1/C(=N/C2=O)Nc2cc(N[C@H]3CC[C@H](N(C)C)CC3)ccc21
3 = Cc1cc2cc(n1)-c1cnn(C)c1OCCC[C@@H](C1CC1)CN1/C(=N/C2=O)Nc2cc(NC3(C(F)(F)F)COC3)ccc21
Query string: Put the entries in order of IC50, starting with the largest number. Hello, could you send the labels back in the order asked? Thank you.
Result string: 3, 1, 2

###

assay: In vitro stability in liver microsomes; format: in vitro ADME; settings: Human liver microsome
observable: Stability in liver microsomes (residual %, T = 60 min) (%)

{"smiles": "Cc1cc2cc(n1)-c1cnn(C)c1OCCC[C@@H](C1CC1)CN1/C(=N/C2=O)Nc2cc(NC3CCN(C(C)C)CC3)ccc21", "measured_result": 96.11}
{"smiles": "Cc1cc2cc(n1)-c1cnn(C)c1OCCC[C@@H](C1CC1)CN1/C(=N/C2=O)Nc2cc(NCCCN3CCCC3)ccc21", "measured_result": 81.11}
{"smiles": "Cc1cc2cc(n1)-c1cnn(C)c1OCCC[C@@H](C1CC1)CN1/C(=N/C2=O)Nc2cc(N[C@H]3C[C@@H](N(C)C)C3)ccc21", "measured_result": 93.95}

Every entry's value here was drawn from patent US20250034165A1.
